Organism: Rattus norvegicus
Experiment: DrugMatrix - Regimen: Daily Repeat
Format: toxicity, organism-based, Sprague-Dawley
Parameters: regimen Daily Repeat, gender Male, age 6-8 weeks
Conditions: in vivo, sc, 2 mg/kg, 120 h, tissue Blood, route mini-PUMP - SUBCUTANEOUS, dose level High, time 5 day, vehicle 100 % SALINE
experimental endpoint: ABSOLUTE LYMPHOCYTE (cells/µL)
Respond numerically; units are cells/µL and should not be typed.

Look up and report measured ABSOLUTE LYMPHOCYTE for this entry: CC(C)NCC(O)c1ccc(O)c(O)c1 (stereo unspecified) 10400

---

Organism: Rattus norvegicus
Assay: DrugMatrix - Regimen: Daily Repeat
Assay type: toxicity, organism-based, Sprague-Dawley
Design: regimen Daily Repeat, gender Male, age 6-8 weeks
Details: in vivo, po, 2000 mg/kg, 120 h, tissue Blood, route oral GAVAGE, dose level High, time 5 day, vehicle .5 % CMC
Could you please report measured ABSOLUTE EOSINOPHIL for the items listed next?
Respond numerically; units are CELLS/uL and should not be typed.

Look up and report measured ABSOLUTE EOSINOPHIL for this entry: CN/C(=N/CCSCc1nc[nH]c1C)NC#N [CIMETIDINE] 104.67

Look up and report measured ABSOLUTE EOSINOPHIL for this entry: CC1(C)S[C@@H]2[C@H](NC(=O)[C@H](N)c3ccccc3)C(=O)N2[C@H]1C(=O)O [AMPICILLIN] 45.67

Look up and report measured ABSOLUTE EOSINOPHIL for this entry: O=C1Nc2ccc(Cl)cc2C(c2ccccc2Cl)=NC1O (centres undefined) [LORAZEPAM] 0

Look up and report measured ABSOLUTE EOSINOPHIL for this entry: COc1cc2nc(N3CCN(C(=O)c4ccco4)CC3)nc(N)c2cc1OC [PRAZOSIN] 0

---

Species: Rattus norvegicus
Assay: DrugMatrix - Regimen: Daily Repeat
Assay type: toxicity, organism-based, Sprague-Dawley
Set-up: regimen Daily Repeat, gender Male, age 6-8 weeks
Conditions: in vivo, po, 0 mg/kg, 72 h, tissue Blood, route oral GAVAGE, dose level Control, time 3 day, vehicle .5 % CMC
Could you please report measured MEAN CORPUSCULAR HEMOGLOBIN CONCENTRATION for the items listed next?

Look up and report measured MEAN CORPUSCULAR HEMOGLOBIN CONCENTRATION for this entry: NC1CCN(c2nc3c(cc2F)c(=O)c(C(=O)O)cn3-c2ccc(F)cc2F)C1 (stereo not drawn) 37.4 G/DL

Look up and report measured MEAN CORPUSCULAR HEMOGLOBIN CONCENTRATION for this entry: "CN(C)[C@@H]1C(O)=C(C(N)=O)C(=O)[C@@]2(O)C(O)=C3C(=O)c4c(O)ccc(Cl)c4[C@@](C)(O)[C@H]3C[C@@H]12" 40.27 G/DL

Look up and report measured MEAN CORPUSCULAR HEMOGLOBIN CONCENTRATION for this entry: "COc1ccc(C2C(=O)c3ccccc3C2=O)cc1" 39.44 G/DL

Look up and report measured MEAN CORPUSCULAR HEMOGLOBIN CONCENTRATION for this entry: O=C1C(CC[S+]([O-])c2ccccc2)C(=O)N(c2ccccc2)N1c1ccccc1 (stereo not drawn) 39.4 G/DL

Look up and report measured MEAN CORPUSCULAR HEMOGLOBIN CONCENTRATION for this entry: "CC(=O)Oc1ccc(C(c2ccc(OC(C)=O)cc2)c2ccccn2)cc1" 36.74 G/DL

Look up and report measured MEAN CORPUSCULAR HEMOGLOBIN CONCENTRATION for this entry: CNCCC(Oc1ccc(C(F)(F)F)cc1)c1ccccc1 (stereo not drawn) 39.5 G/DL

Look up and report measured MEAN CORPUSCULAR HEMOGLOBIN CONCENTRATION for this entry: "O=C1CN=C(c2ccccc2Cl)c2cc([N+](=O)[O-])ccc2N1" 38.98 G/DL

Look up and report measured MEAN CORPUSCULAR HEMOGLOBIN CONCENTRATION for this entry: "C[C@H]1O[C@@H](n2cc(F)c(=O)[nH]c2=O)[C@H](O)[C@@H]1O" 38.98 G/DL
